# pIC50 measurements, system: Poly [ADP-ribose] polymerase 1 (Homo sapiens)
# Sequence (P09874 whole entry): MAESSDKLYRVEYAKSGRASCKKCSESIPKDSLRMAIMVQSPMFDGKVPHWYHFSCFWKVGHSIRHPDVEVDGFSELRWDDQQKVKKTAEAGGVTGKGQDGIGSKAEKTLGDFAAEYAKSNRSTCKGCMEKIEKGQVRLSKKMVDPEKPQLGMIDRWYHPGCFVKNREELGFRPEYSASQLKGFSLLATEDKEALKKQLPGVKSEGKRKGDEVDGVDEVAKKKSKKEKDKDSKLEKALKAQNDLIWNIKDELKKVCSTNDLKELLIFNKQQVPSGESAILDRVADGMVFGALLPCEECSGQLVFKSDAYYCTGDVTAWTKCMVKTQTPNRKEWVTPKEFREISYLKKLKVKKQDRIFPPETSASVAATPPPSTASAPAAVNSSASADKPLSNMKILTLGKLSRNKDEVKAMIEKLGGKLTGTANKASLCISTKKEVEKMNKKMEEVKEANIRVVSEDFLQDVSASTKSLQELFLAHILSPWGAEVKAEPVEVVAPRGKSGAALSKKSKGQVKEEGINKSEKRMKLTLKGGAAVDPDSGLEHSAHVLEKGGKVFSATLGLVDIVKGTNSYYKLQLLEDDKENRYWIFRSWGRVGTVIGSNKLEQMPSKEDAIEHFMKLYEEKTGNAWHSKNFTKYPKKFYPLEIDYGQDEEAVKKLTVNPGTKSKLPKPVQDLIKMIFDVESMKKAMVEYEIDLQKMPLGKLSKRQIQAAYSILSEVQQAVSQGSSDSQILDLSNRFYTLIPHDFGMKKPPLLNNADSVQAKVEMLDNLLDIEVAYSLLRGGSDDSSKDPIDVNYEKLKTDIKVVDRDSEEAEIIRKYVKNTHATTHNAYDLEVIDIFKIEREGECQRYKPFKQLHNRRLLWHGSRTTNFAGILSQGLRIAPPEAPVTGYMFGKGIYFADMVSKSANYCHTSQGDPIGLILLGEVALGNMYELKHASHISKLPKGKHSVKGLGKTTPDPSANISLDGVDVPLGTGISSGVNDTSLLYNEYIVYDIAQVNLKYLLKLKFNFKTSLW
One number for each entry, as −log10 of the molar value.

Consider the reported pIC50 for these molecules:
CN(C)Cc1cc(O)c2c3c(c(=O)[nH]c2c1)CCCN3    6.12
COc1cc(C[N+](C)(C)C2CCCC2)cc2[nH]c(=O)c3c(c12)NCCC3    6.54

Kindly consider the entry below.
Exam item: Suppose we examine the molecule CN(C)CCOc1ccc2c3c(c(=O)[nH]c2c1)CCCN3 ; what pIC50 value has been reported?
Marked response: 5.79
